Catalogue of melting point values

As a guide, the following entries are already answered.
compound: O=C(Oc1ccc2c(c1)CCCC2)Oc1ccc2c(c1)CCCC2
melting point: 112 °C
--
compound: CN(C)C=CC(=O)c1cccc(NC=O)c1
melting point: 165 to 167 °C
--
compound: CCCc1nnc2c(NC3CCCC3)nc3ccccc3n12
melting point: 186 to 188 °C
--
compound: c1ccc(CN2CCN(c3ccnc4ccccc34)CC2)cc1
melting point: 105 to 106 °C
--
compound: CN(Cc1ccc(NC(=O)C2=Cc3cc(-c4ccc(Cl)cc4)ccc3S(=O)(=O)CC2)cc1)C1CCC(=O)CC1
melting point: 197 to 200 °C
--
compound: COc1ccc(-c2nc3sccn3c2/C=C/C(=O)c2ccc[nH]2)cc1
melting point: 177 to 179 °C
--
compound: O=C(O)c1ccc(Cc2cc3cc(C(F)(F)F)ccc3n2S(=O)(=O)c2cccc(C3CC3)c2)cc1
melting point: 147 °C
--
compound: O=C(CCl)Cc1nc2ccccc2c(=O)n1-c1ccc(Cl)cc1
melting point: > 275 °C

**Q:** Return melting point for the following compound: NC(=O)N(O)Cc1ccc(Oc2ccc(-n3ccnc3)cc2)s1
**A:** 141 °C

**Q:** Return melting point for the following compound: CCCC1=C(C(=O)OCC)C(c2ccoc2C)c2c[nH]nc2N1 (stereo not given)
**A:** 123 to 125 °C

====

measurementName: melting point

smilesInput: Cc1ccc(F)cc1C=S
melting point: 45 to 47 °C

smilesInput: CCOC(=O)CNC(=O)OCc1ccc(OC(C)=O)c(OC)c1
melting point: 62 to 64 °C

**Q:** Return melting point for the following compound: CC(C)c1nn(-c2ccc(Br)cn2)cc1CCCO
**A:** 96 to 97 °C

====

measurementName: melting point

As a guide, the following entries are already answered.
compound: CC(C)C(=O)N1C(=O)C2C=CC1C2 (configuration not stated)
measured: 41 to 42 °C
--
compound: c1ccc2c(Cn3cncn3)noc2c1
measured: 102 to 104 °C
--
compound: O=C(O)C1c2ccccc2COc2ccc(I)cc21 (configuration not stated)
measured: 191 to 192 °C
--
compound: Cc1nc(-c2nc(-c3ccc(F)cc3)c(-c3ccc(S(C)(=O)=O)cc3)s2)cs1
measured: 184 to 186 °C
--
compound: O=C1c2ccccc2C(=O)N1CCn1ccnc1
measured: 151 to 153 °C
--
compound: N#Cc1cc(O)cc2nc(-c3ccc(O)c(F)c3)oc12
measured: 308 to 310 °C
--
compound: Cc1cc(-c2nc3cccnn3c2-c2ccnc(NC(=O)NCCS(C)(=O)=O)c2)ccc1F
measured: 204 to 205 °C
--
compound: NC(=O)c1ccc(-c2ccccc2C(=O)N2Cc3cccn3Cc3ccccc32)cc1C(F)(F)F
measured: 226 to 228 °C

**Q:** Return melting point for the following compound: Cc1ccc(S(=O)(=O)OCC2CCc3ccc4[nH]c(=O)[nH]c4c3O2)cc1 (configuration not stated)
**A:** 205 °C

**Q:** Return melting point for the following compound: O=C(O)c1ccc(NC(=O)c2ccc3c(c2)OCCO3)cc1
**A:** 278 to 280 °C

====

measurementName: melting point

As a guide, the following entries are already answered.
compound: CSc1ccc(COc2cc(S(=O)(=O)C(C)C)cc(C#N)c2N)nc1
measured: 156 to 157 °C
//
compound: CCOC(=O)CC(NCCCNC(C)(C)C)C(=O)O (stereo unspecified)
measured: 174 to 175 °C
//
compound: O=C1CNc2cc(F)ccc2N1
measured: 176 to 178 °C
//
compound: CCCCOCCOc1ccc(-c2ccc3c(c2)C=C(C(=O)Nc2ccc(OCc4nccn4CCC)cc2)CCN3CC(C)C)cc1
measured: 118 to 120 °C
//
compound: O=C(OCc1ccccc1)C1C(Sc2ccccc2)CC2CC(=O)N21 (stereo unspecified)
measured: 84 to 85 °C

Now for another entry.
**Q:** Return melting point for the following compound: CC(=O)OCCCC(C(=O)C=Cc1ccc(O)c(OC(F)(F)F)c1)C(=O)C=Cc1ccc(O)c(OC(F)(F)F)c1 (stereo unspecified)
**A:** 130 to 131 °C

Every entry's value here was drawn from a melting point compilation (Tetko et al.; mined from patent text by program, amines drawn as free bases though some values may be those of a salt).
